Target: T1, Full-length human TIGIT on CHO cells overexpressing TIGIT (human, UniProt Q495A1 22-244)
T1 construct: also called TIGIT-CHO cells; CHO cells overexpressing human TIGIT
T1 sequence: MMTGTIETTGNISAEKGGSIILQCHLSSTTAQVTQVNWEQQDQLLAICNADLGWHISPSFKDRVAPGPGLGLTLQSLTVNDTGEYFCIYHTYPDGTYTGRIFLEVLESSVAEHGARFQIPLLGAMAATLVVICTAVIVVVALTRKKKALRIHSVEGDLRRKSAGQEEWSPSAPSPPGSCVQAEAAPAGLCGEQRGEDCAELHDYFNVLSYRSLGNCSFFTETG
Assay: FACS blocking assay on TIGIT-CHO cells; competitor CF633-labeled CD155-Fc at 2 ug/ml
Quantity measured: IC50 (nM)
Please give a number only; it is taken to be in nM.

# IC50 of 10A7 hIgG4 (antibody, V domains shown) VH: EVQLVESGGGLTQPGKSLKLSCEASGFTFSSFTMHWVRQSPGKGLEWVAFIRSGSGIVFYADAVRGRFTISRDNAKNLLFLQMNDLKSEDTAMYYCARRPLGHNTFDSWGQGTLVTVSS VL: DIVMTQSPSSLAVSPGEKVTMTCKSSQSLYYSGVKENLLAWYQQKPGQSPKLLIYYASIRFTGVPDRFTGSGSGTDYTLTITSVQAEDMGQYFCQQGINNPLTFGDGTKLEIKR = 0.678

So, h1708-04 (antibody, human IgG4 S228P, kappa, V domains shown, also called humanized TIGIT antibody h1708-04) VH: EVQLVQSGAEVKKPGASVKVSCKASGYTFTNYWMHWVRQAPGQGLEWMGRIDPDSTGSKYNEKFKTRVTMTRDTSTSTVYMELSSLRSEDTAVYYCAREGAYGYYFDYWGQGTLVTVSS VL: DIQMTQSPSSLSASVGDRVTITCRASENIYSYLAWYQQKPGKSPKLLIYNARTLAEGVPSRFSGSGSGTDFTLTISSLQPEDFATYYCQYHSGSPLPFGGGTKVEIKR ? Its IC50 was 0.499

Recorded IC50 (binder h1710-01 (antibody, human IgG4 S228P, kappa, V domains shown, also called humanized TIGIT antibody h1710-01) VH: EVQLVQSGAEVKKPGASVKVSCKASGYTFTNYYMHWVRQAPGQGLEWMGRIDPTSGATKYNDNFKGRVTMTRDTSTSTVYMELSSLRSEDTAVYYCAREGGFGYYFDYWGQGTTVTVSS VL: DIQMTQSPSSLSASVGDRVTITCRTSENIFTYLAWYQQKPGKAPKLLIYNAKTFAEGVPSRFSGSGSGTDFTLTISSLQPEDFATYYCQHHYGIPLPFGQGTKLEIKR ): 0.468
